These measurements were taken from patent US11339171B2.

The following compounds are shown together with reported AUC(0-t) values.
- test_description: Pharmacokinetics in ICR mice after intravenous and intragastric administration
- Assay type: in vivo
- condition_description: male, ICR, mouse, plasma, po, 5 mg/kg, ICR mice, PO 5 mg/kg, individual animals 401-403; read-out: AUC(0-t)
Field format: number, assumed ng·h/mL, no unit text.

structure_as_smiles=COc1cc(C(F)(F)F)ncc1-c1nc2c(n1C(C)C)[C@@]1(C(=O)Nc3cc(Cl)ccc31)N(c1cc(Cl)ccc1C)C2=O reported_value=7430
structure_as_smiles=COc1nc(N(C)C)ncc1-c1nc2c(n1C(C)C)[C@@]1(C(=O)Nc3cc(Cl)ccc31)N(c1cc(Cl)cnc1C)C2=O reported_value=9390
structure_as_smiles=COc1cc(OC(C)C)ncc1-c1nc2c(n1C(C)C)[C@@]1(C(=O)Nc3cc(Cl)ccc31)N(c1cc(Cl)cnc1C)C2=O reported_value=15400

Prompt: Fill in reported AUC(0-t) for this entry: COc1nc(C2CC2)ncc1-c1nc2c(n1C(C)C)[C@@]1(C(=O)Nc3cc(Cl)ccc31)N(c1cc(Cl)cnc1C)C2=O
Completion: 3740

Prompt: Fill in reported AUC(0-t) for this entry: CCOc1ncc(-c2nc3c(n2C(C)C)[C@@]2(C(=O)Nc4cc(Cl)ccc42)N(c2cc(Cl)cnc2C)C3=O)c(OC)n1
Completion: 9720

Prompt: Fill in reported AUC(0-t) for this entry: COc1nc(OCCF)ncc1-c1nc2c(n1C(C)C)[C@@]1(C(=O)Nc3cc(Cl)ccc31)N(c1cc(Cl)ccc1C)C2=O
Completion: 22600

====

- test_description: Pharmacokinetics in ICR mice after intravenous and intragastric administration
- Format: in vivo
- condition_description: male, ICR, mouse, plasma, po, 5 mg/kg, PO 5 mg/kg, ICR mice, individual animal; read-out: MRT(0-∞)
The following compounds are shown together with reported MRT inf values.
Field format: number, assumed h, no unit text.

compound="COc1ncc(-c2nc3c(n2C(C)C)[C@@]2(C(=O)Nc4cc(Cl)ccc42)N(c2cc(Cl)ccc2C)C3=O)c(OC)n1 [Example S-2]" unit=h reported_value=3.09
compound="COc1cc(N(C)C)ccc1-c1nc2c(n1C(C)C)[C@@]1(C(=O)Nc3cc(Cl)ccc31)N(c1cc(Cl)ccc1C)C2=O [Example S-23]" unit=h reported_value=2.43

Prompt: Fill in reported MRT inf for this entry: COc1ncc(-c2nc3c(n2C(C)C)[C@H](c2ccc(Cl)cc2)N(c2cc(Cl)cn(C)c2=O)C3=O)c(OC)n1 [HDM201, reference compound]
Completion: 2.09

====

The following molecules are shown together with reported AUC(0-t) values.
- test_description: Pharmacokinetics in ICR mice after intravenous and intragastric administration
- Format: in vivo
- condition_description: male, ICR, mouse, plasma, iv, 2 mg/kg, ICR mice, IV 2 mg/kg, mean of 3 animals; read-out: AUC(0-t)
- Experimental: Experimental Example 3 Determination of the Pharmacokinetics of the Mdm2 Inhibitors of the Present Invention in Mice […] The collected plasma was stored at −80° C. before analysis. The plasma sample was analyzed by LC-MS/MS, and the sample was pretreated by protein precipitation method. […] The lowest quantification limit was 1 ng/mL. […]
Note: state the figure and append the unit.

molecule="COc1ncc(-c2nc3c(n2C(C)C)[C@@]2(C(=O)Nc4cc(Cl)ccc42)N(c2cc(F)cc(Cl)c2)C3=O)c(OC)n1 [Example S-45]" reported_value="19100 ng·h/mL"
molecule="CCOc1ncc(-c2nc3c(n2C(C)C)[C@@]2(C(=O)Nc4cc(Cl)ccc42)N(c2cc(Cl)cnc2C)C3=O)c(OC)n1 [Example S-134]" reported_value="6280 ng·h/mL"
molecule="COc1cc(OC)c(-c2nc3c(n2C(C)C)[C@@]2(C(=O)Nc4cc(Cl)ccc42)N(c2cccc(Cl)c2)C3=O)cn1 [Example S-115]" reported_value="2610 ng·h/mL"
molecule="COc1cc(OC)c(-c2nc3c(n2C(C)C)[C@@]2(C(=O)Nc4cc(Cl)ccc42)N(c2cc(Cl)ccc2F)C3=O)cn1 [Example S-133]" reported_value="3560 ng·h/mL"
molecule="CCOc1cc(OC)c(-c2nc3c(n2C(C)C)[C@@]2(C(=O)Nc4cc(Cl)ccc42)N(c2cc(Cl)ccc2C)C3=O)cn1 [Example S-72]" reported_value="12700 ng·h/mL"

Prompt: Fill in reported AUC(0-t) for this entry: COc1nc(C2CC2)ncc1-c1nc2c(n1C(C)C)[C@@]1(C(=O)Nc3cc(Cl)ccc31)N(c1cc(Cl)ccc1C)C2=O [Example S-121]
Completion: 26600 ng·h/mL

Prompt: Fill in reported AUC(0-t) for this entry: COc1cc(C(C)C)ccc1-c1nc2c(n1C(C)C)[C@@]1(C(=O)Nc3cc(Cl)ccc31)N(c1cc(Cl)ccc1C)C2=O [Example S-32]
Completion: 5250 ng·h/mL

====

- test_description: Pharmacokinetics in ICR mice after intravenous and intragastric administration
- Type: in vivo
- condition_description: male, ICR, mouse, plasma, po, 5 mg/kg, oral intragastric administration 5 mg/kg; read-out: AUC0-t
The following compounds are shown together with reported AUC(0-t) values.
Note: state the figure and append the unit.

Would you please look over these solved cases?
compound="COc1ncc(-c2nc3c(n2C(C)C)[C@@]2(C(=O)Nc4cc(Cl)ccc42)N(c2cc(Cl)ccc2C)C3=O)c(OC)n1 [Example S-2]" reported_value="3730 ng·h/mL"
compound="COc1cc(N(C)C)ccc1-c1nc2c(n1C(C)C)[C@@]1(C(=O)Nc3cc(Cl)ccc31)N(c1cc(Cl)ccc1C)C2=O [Example S-23]" reported_value="8010 ng·h/mL"
compound="COc1ncc(-c2nc3c(n2C(C)C)[C@@]2(C(=O)Nc4cc(Cl)ccc42)N(c2cc(Cl)ccc2F)C3=O)c(OC)n1 [Example S-44]" reported_value="6450 ng·h/mL"
compound="COc1cc(OC(C)C)ncc1-c1nc2c(n1C(C)C)[C@@]1(C(=O)Nc3cc(Cl)ccc31)N(c1cc(Cl)ccc1C)C2=O [Example S-69]" reported_value="87000 ng·h/mL"
compound="COc1ncc(-c2nc3c(n2C(C)C)[C@@]2(C(=O)Nc4cc(Cl)ccc42)N(c2cc(F)cc(Cl)c2)C3=O)c(OC)n1 [Example S-45]" reported_value="5120 ng·h/mL"

Prompt: Fill in reported AUC(0-t) for this entry: COc1cc(C(F)(F)F)ncc1-c1nc2c(n1C(C)C)[C@@]1(C(=O)Nc3cc(Cl)ccc31)N(c1cc(Cl)ccc1C)C2=O [Example S-138]
Completion: 7690 ng·h/mL

====

- test_description: Pharmacokinetics in ICR mice after intravenous and intragastric administration
- Assay type: in vivo
- condition_description: male, ICR, mouse, plasma, po, 5 mg/kg, oral intragastric administration 5 mg/kg; read-out: half-life (converted)
Consider the cut-off 2 h. If the recorded half-life is strictly smaller, the label is true (1); if not, the label is false (0).

structure_as_smiles=CCOc1cc(OC)c(-c2nc3c(n2C(C)C)[C@@]2(C(=O)Nc4cc(Cl)ccc42)N(c2cc(Cl)ccc2C)C3=O)cn1 class_assignment="true (1)"

Prompt: Consider the compound CCOc1ncc(-c2nc3c(n2C(C)C)[C@@]2(C(=O)Nc4cc(Cl)ccc42)N(c2cc(Cl)cnc2C)C3=O)c(OC)n1 . Is its half-life strictly less than 2 h?
Completion: true (1)

Prompt: Consider the compound COc1ncc(-c2nc3c(n2C(C)C)[C@@]2(C(=O)Nc4cc(Cl)ccc42)N(c2cccc(Cl)c2)C3=O)c(OC)n1 . Is its half-life strictly less than 2 h?
Completion: true (1)

Prompt: Consider the compound COc1cc(C(F)(F)F)ncc1-c1nc2c(n1C(C)C)[C@@]1(C(=O)Nc3cc(Cl)ccc31)N(c1cc(Cl)ccc1C)C2=O . Is its half-life strictly less than 2 h?
Completion: false (0)

====

- test_description: Pharmacokinetics in ICR mice after intravenous and intragastric administration
- Type: in vivo
- condition_description: male, ICR, mouse, plasma, po, 5 mg/kg, ICR mice, PO 5 mg/kg, mean of 3 animals; read-out: Tmax
- Procedure: Experimental Example 3 Determination of the Pharmacokinetics of the Mdm2 Inhibitors of the Present Invention in Mice […] The collected plasma was stored at −80° C. before analysis. The plasma sample was analyzed by LC-MS/MS, and the sample was pretreated by protein precipitation method. […] The lowest quantification limit was 1 ng/mL. […]
The following molecules are shown together with reported Tmax values.
Field format: number, assumed h, no unit text.

Would you please look over these solved cases?
molecule="COc1ncc(-c2nc3c(n2C(C)C)[C@@]2(C(=O)Nc4cc(Cl)ccc42)N(c2cc(F)cc(Cl)c2)C3=O)c(OC)n1 [Example S-45]" reported_metric=Tmax unit=h reported_value=0.83
molecule="COc1cc(OC(C)C)ncc1-c1nc2c(n1C(C)C)[C@@]1(C(=O)Nc3cc(Cl)ccc31)N(c1cc(Cl)ccc1C)C2=O [Example S-69]" reported_metric=Tmax unit=h reported_value=2

Prompt: Fill in reported Tmax for this entry: COc1cc(C(F)(F)F)ncc1-c1nc2c(n1C(C)C)[C@@]1(C(=O)Nc3cc(Cl)ccc31)N(c1cc(Cl)ccc1C)C2=O [Example S-138]
Completion: 2.33

Prompt: Fill in reported Tmax for this entry: COc1cc(OC(C)C)ncc1-c1nc2c(n1C(C)C)[C@@]1(C(=O)Nc3cc(Cl)ccc31)N(c1cc(Cl)cnc1C)C2=O [Example S-137]
Completion: 0.5

Prompt: Fill in reported Tmax for this entry: COc1ncc(-c2nc3c(n2C(C)C)[C@@]2(C(=O)Nc4cc(Cl)ccc42)N(c2cc(Cl)ccc2F)C3=O)c(OC)n1 [Example S-44]
Completion: 1.33

Prompt: Fill in reported Tmax for this entry: CCOc1cc(OC)c(-c2nc3c(n2C(C)C)[C@@]2(C(=O)Nc4cc(Cl)ccc42)N(c2cc(Cl)ccc2C)C3=O)cn1 [Example S-72]
Completion: 0.67
